MEASUREMENT_TARGET: T1, Cynomolgus monkey CD98 ECD with C-terminal His-tag (cynomolgus monkey, UniProt P08195 105-529 (human entry))
T1 construct: also called cyCD98 ECD; recombinant cynomolgus monkey CD98 extracellular domain
T1 chain: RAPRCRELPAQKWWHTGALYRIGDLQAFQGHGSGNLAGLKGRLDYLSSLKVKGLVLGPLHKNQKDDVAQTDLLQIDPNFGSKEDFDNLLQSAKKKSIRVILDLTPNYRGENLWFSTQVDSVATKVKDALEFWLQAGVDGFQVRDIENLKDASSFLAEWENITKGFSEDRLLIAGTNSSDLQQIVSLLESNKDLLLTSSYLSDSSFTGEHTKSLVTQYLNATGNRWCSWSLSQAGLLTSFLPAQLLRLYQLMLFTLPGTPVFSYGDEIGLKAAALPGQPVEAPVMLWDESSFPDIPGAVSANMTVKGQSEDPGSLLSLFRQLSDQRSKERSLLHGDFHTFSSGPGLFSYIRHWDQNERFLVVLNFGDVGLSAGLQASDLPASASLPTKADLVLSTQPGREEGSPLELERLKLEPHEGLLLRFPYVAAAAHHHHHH
EXPERIMENT_DESCRIPTION: SPR Biacore, anti-Fc capture of mAb, CD98 ECD analyte
MEASUREMENT_TYPE: kon (M⁻¹ s⁻¹)
Express it in M⁻¹ s⁻¹; write the number only.

Known kon results, listed for orientation:
Anti-CD98 rat hybridoma antibody Ab9 (antibody, V domains shown) VH: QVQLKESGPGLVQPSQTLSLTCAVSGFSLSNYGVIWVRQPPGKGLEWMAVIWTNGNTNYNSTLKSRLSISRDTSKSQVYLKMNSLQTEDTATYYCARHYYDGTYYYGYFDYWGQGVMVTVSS VL: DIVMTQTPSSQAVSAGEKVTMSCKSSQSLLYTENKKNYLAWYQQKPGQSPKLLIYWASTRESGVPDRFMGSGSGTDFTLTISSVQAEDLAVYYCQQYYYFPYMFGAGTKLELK    51000
Anti-CD98 murine hybridoma antibody Ab3 (antibody, V domains shown) VH: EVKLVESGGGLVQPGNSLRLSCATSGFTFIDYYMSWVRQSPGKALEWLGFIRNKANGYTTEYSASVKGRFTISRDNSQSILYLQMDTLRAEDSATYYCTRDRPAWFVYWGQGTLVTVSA VL: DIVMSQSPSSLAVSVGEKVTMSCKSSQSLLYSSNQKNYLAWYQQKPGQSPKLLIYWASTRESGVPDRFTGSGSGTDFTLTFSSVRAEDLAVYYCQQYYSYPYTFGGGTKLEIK    38000

# input Which kon is reported for this binder? Anti-CD98 rat hybridoma antibody Ab6 (antibody, V domains shown) VH: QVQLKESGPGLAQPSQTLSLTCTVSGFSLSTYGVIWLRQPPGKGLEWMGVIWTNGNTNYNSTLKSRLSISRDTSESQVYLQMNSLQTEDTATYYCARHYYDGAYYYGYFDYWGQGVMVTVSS VL: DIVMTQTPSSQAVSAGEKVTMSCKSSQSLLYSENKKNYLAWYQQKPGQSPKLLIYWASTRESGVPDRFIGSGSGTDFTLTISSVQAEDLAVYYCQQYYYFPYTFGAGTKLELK
# output 62000
